Tested on: S. aureus 734 MRSA
Assay: MIC, agar dilution method in Mueller Hinton agar
Format: cell-based
Conditions: Staphylococcus aureus, read-out: MIC (Minimum Inhibiting Concentration)
Description: In vitro activity was determined by minimum inhibitory concentration in a microorganism spectum by the agar dilution method in Mueller Hinton agar.
measurement_label: MIC (µg/mL)
Value expressed in µg/mL; do not type the unit.

Here is how some compounds turned out for MIC.
                                   compound  measurement_label  meas_value
0  Nc1nc(/C(=N/O)C(=O)N[C@@H]2C(=O)N3C(C(=O)O)=C(/C=C4\CCN(CC5CCCCC5)C4=O)CS[C@H]23)cs1 [C]                MIC           8
1  CC(C)(C)CN1CC/C(=C\C2=C(C(=O)O)N3C(=O)[C@@H](NC(=O)/C(=N\O)c4csc(N)n4)[C@H]3SC2)C1=O [B]                MIC          16

Now for a further compound.
// MIC value for CC(C)CN1CC/C(=C\C2=C(C(=O)O)N3C(=O)[C@@H](NC(=O)/C(=N\O)c4csc(N)n4)[C@H]3SC2)C1=O.O=C(O)C(F)(F)F [A] : 4

---

tested on: X. maltophilia 1AC739
measurement_label: MIC

>>> df
                                   molecule           study_system  meas_value
0  CO/N=C(\C(=O)N[C@@H]1C(=O)N2C(C(=O)O)=C(CSc3nc(=O)c(=O)[nH]n3C)CS[C@H]12)c1csc(N)n1 [Ceftriaxone, reference compound]  X. maltophilia 1AC739  > 32 µg/mL
1  C=CC1=C(C(=O)O)N2C(=O)[C@@H](NC(=O)/C(=N\O)c3csc(N)n3)[C@H]2SC1 [Cefdinir, reference compound]  X. maltophilia 1AC739  > 32 µg/mL
2  CC(C)CN1CC/C(=C\C2=C(C(=O)O)N3C(=O)[C@@H](NC(=O)/C(=N\O)c4csc(N)n4)[C@H]3SC2)C1=O.O=C(O)C(F)(F)F [A]  X. maltophilia 1AC739  > 32 µg/mL

For the molecule CC(C)(C)CN1CC/C(=C\C2=C(C(=O)O)N3C(=O)[C@@H](NC(=O)/C(=N\O)c4csc(N)n4)[C@H]3SC2)C1=O [B] , the measured MIC on X. maltophilia 1AC739 was > 32 µg/mL

For the molecule Nc1nc(/C(=N/O)C(=O)N[C@@H]2C(=O)N3C(C(=O)O)=C(/C=C4\CCN(CC5CCCCC5)C4=O)CS[C@H]23)cs1 [C] , the measured MIC on X. maltophilia 1AC739 was > 32 µg/mL

---

# MIC per entry for M. catarrhalis RA21

>>> print(df.to_string())
                                   molecule         study_system  measurement_label  meas_value
0  CO/N=C(\C(=O)N[C@@H]1C(=O)N2C(C(=O)O)=C(CSc3nc(=O)c(=O)[nH]n3C)CS[C@H]12)c1csc(N)n1 [Ceftriaxone, reference compound]  M. catarrhalis RA21                MIC      1 mg/L
1  CC(C)CN1CC/C(=C\C2=C(C(=O)O)N3C(=O)[C@@H](NC(=O)/C(=N\O)c4csc(N)n4)[C@H]3SC2)C1=O.O=C(O)C(F)(F)F [A]  M. catarrhalis RA21                MIC      1 mg/L
2  C=CC1=C(C(=O)O)N2C(=O)[C@@H](NC(=O)/C(=N\O)c3csc(N)n3)[C@H]2SC1 [Cefdinir, reference compound]  M. catarrhalis RA21                MIC      1 mg/L
3  Nc1nc(/C(=N/O)C(=O)N[C@@H]2C(=O)N3C(C(=O)O)=C(/C=C4\CCN(CC5CCCCC5)C4=O)CS[C@H]23)cs1 [C]  M. catarrhalis RA21                MIC     16 mg/L

// MIC value for CC(C)(C)CN1CC/C(=C\C2=C(C(=O)O)N3C(=O)[C@@H](NC(=O)/C(=N\O)c4csc(N)n4)[C@H]3SC2)C1=O [B] : 16 mg/L

---

test system: C. freundii 902; test: MIC, agar dilution method in Mueller Hinton agar; type: cell-based; details: Citrobacter freundii, read-out: MIC (Minimum Inhibiting Concentration)
Below, each entry is listed alongside its reported MIC.
Value expressed in µg/mL; do not type the unit.

Here is how some molecules turned out for MIC.
                                   molecule  measurement_label  measurement_unit  meas_value
0  CC(C)(C)CN1CC/C(=C\C2=C(C(=O)O)N3C(=O)[C@@H](NC(=O)/C(=N\O)c4csc(N)n4)[C@H]3SC2)C1=O [B]                MIC             µg/mL           1
1  Nc1nc(/C(=N/O)C(=O)N[C@@H]2C(=O)N3C(C(=O)O)=C(/C=C4\CCN(CC5CCCCC5)C4=O)CS[C@H]23)cs1 [C]                MIC             µg/mL           1
2  CC(C)CN1CC/C(=C\C2=C(C(=O)O)N3C(=O)[C@@H](NC(=O)/C(=N\O)c4csc(N)n4)[C@H]3SC2)C1=O.O=C(O)C(F)(F)F [A]                MIC             µg/mL        0.25
3  CO/N=C(\C(=O)N[C@@H]1C(=O)N2C(C(=O)O)=C(CSc3nc(=O)c(=O)[nH]n3C)CS[C@H]12)c1csc(N)n1 [Ceftriaxone, reference compound]                MIC             µg/mL        0.25

Now for a further molecule.
// MIC value for C=CC1=C(C(=O)O)N2C(=O)[C@@H](NC(=O)/C(=N\O)c3csc(N)n3)[C@H]2SC1 [Cefdinir, reference compound] : 16

---

# MIC per entry for Actinetobacter sp. 51-156
Value expressed in µg/mL; do not type the unit.

Here is how some compounds turned out for MIC.
In [3]: df
Out[3]:
                                   compound  measurement_unit  meas_value
0  Nc1nc(/C(=N/O)C(=O)N[C@@H]2C(=O)N3C(C(=O)O)=C(/C=C4\CCN(CC5CCCCC5)C4=O)CS[C@H]23)cs1 [C]             µg/mL          16
1  CC(C)CN1CC/C(=C\C2=C(C(=O)O)N3C(=O)[C@@H](NC(=O)/C(=N\O)c4csc(N)n4)[C@H]3SC2)C1=O.O=C(O)C(F)(F)F [A]             µg/mL          16
2  CO/N=C(\C(=O)N[C@@H]1C(=O)N2C(C(=O)O)=C(CSc3nc(=O)c(=O)[nH]n3C)CS[C@H]12)c1csc(N)n1 [Ceftriaxone, reference compound]             µg/mL          32

For the compound CC(C)(C)CN1CC/C(=C\C2=C(C(=O)O)N3C(=O)[C@@H](NC(=O)/C(=N\O)c4csc(N)n4)[C@H]3SC2)C1=O [B] , the measured MIC on Actinetobacter sp. 51-156 was 32

---

test system: E. coli 25922
measurement_label: MIC

In [3]: df
Out[3]:
                                   molecule   study_system    meas_value
0  CC(C)CN1CC/C(=C\C2=C(C(=O)O)N3C(=O)[C@@H](NC(=O)/C(=N\O)c4csc(N)n4)[C@H]3SC2)C1=O.O=C(O)C(F)(F)F  E. coli 25922    0.25 µg/mL
1  CC(C)(C)CN1CC/C(=C\C2=C(C(=O)O)N3C(=O)[C@@H](NC(=O)/C(=N\O)c4csc(N)n4)[C@H]3SC2)C1=O  E. coli 25922       1 µg/mL
2  CO/N=C(\C(=O)N[C@@H]1C(=O)N2C(C(=O)O)=C(CSc3nc(=O)c(=O)[nH]n3C)CS[C@H]12)c1csc(N)n1 [Ceftriaxone, reference compound]  E. coli 25922  ≤ 0.06 µg/mL
3  C=CC1=C(C(=O)O)N2C(=O)[C@@H](NC(=O)/C(=N\O)c3csc(N)n3)[C@H]2SC1 [Cefdinir, reference compound]  E. coli 25922    0.25 µg/mL

Now for a further molecule.
For the molecule Nc1nc(/C(=N/O)C(=O)N[C@@H]2C(=O)N3C(C(=O)O)=C(/C=C4\CCN(CC5CCCCC5)C4=O)CS[C@H]23)cs1 , the measured MIC on E. coli 25922 was 1 µg/mL

---

system: S. pyogenes B15
measurement_label: MIC

Here is how some molecules turned out for MIC.
In [3]: df
Out[3]:
                                   molecule     study_system    meas_value
0  Nc1nc(/C(=N/O)C(=O)N[C@@H]2C(=O)N3C(C(=O)O)=C(/C=C4\CCN(CC5CCCCC5)C4=O)CS[C@H]23)cs1  S. pyogenes B15  ≤ 0.06 µg/mL
1  CC(C)(C)CN1CC/C(=C\C2=C(C(=O)O)N3C(=O)[C@@H](NC(=O)/C(=N\O)c4csc(N)n4)[C@H]3SC2)C1=O  S. pyogenes B15  ≤ 0.06 µg/mL

// MIC value for CC(C)CN1CC/C(=C\C2=C(C(=O)O)N3C(=O)[C@@H](NC(=O)/C(=N\O)c4csc(N)n4)[C@H]3SC2)C1=O.O=C(O)C(F)(F)F : ≤ 0.06 µg/mL

// MIC value for C=CC1=C(C(=O)O)N2C(=O)[C@@H](NC(=O)/C(=N\O)c3csc(N)n3)[C@H]2SC1 [Cefdinir, reference compound] : ≤ 0.06 µg/mL

// MIC value for CO/N=C(\C(=O)N[C@@H]1C(=O)N2C(C(=O)O)=C(CSc3nc(=O)c(=O)[nH]n3C)CS[C@H]12)c1csc(N)n1 [Ceftriaxone, reference compound] : ≤ 0.06 µg/mL
